Data origin, for the record: ChEMBL document CHEMBL1138950

biological target: RNA-directed RNA polymerase (Hepacivirus hominis, UniProt O39930); test: Inhibition of HCV 3a NS5B RNA dependent RNA polymerase
Sequence (O39930 whole entry, the tested form may be a part): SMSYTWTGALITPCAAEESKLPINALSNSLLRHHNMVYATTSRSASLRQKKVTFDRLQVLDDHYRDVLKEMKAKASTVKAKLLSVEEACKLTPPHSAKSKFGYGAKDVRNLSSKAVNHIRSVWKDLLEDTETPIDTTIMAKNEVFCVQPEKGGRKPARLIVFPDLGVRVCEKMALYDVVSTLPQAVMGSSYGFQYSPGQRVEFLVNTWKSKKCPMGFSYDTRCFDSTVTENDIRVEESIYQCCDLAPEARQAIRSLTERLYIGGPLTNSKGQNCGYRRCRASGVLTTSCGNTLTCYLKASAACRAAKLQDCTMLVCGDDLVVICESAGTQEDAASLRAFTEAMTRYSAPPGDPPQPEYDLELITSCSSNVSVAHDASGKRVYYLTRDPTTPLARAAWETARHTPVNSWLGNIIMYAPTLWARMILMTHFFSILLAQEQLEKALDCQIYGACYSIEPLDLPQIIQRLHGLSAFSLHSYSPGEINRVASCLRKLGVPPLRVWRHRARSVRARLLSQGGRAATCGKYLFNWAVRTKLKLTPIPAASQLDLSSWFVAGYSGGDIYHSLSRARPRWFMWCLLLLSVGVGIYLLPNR
READOUT KIND: pIC50
The scale used: pIC50 is minus the common logarithm of the concentration in molar units.

Please give measured pIC50 of the following entry: O=C(O)c1ccc2c(c1)nc(-c1ccc(OCc3cc(N4CCCC4=O)ccc3-c3ccc(Cl)cc3)cc1F)n2C1CCCCC1
7.21

###

Hi there, I'd appreciate the recorded concentration at 2 h for every entry that follows.
test: Plasma concentration in rat at 30 mg/kg, po after 2 hrs; assay type: ADME, organism-based; parameters: dose 30 mg/kg, route oral
# include the unit after the value

Indicate its recorded concentration at 2 h; the compound in question is O=C(O)c1ccc2c(c1)nc(-c1ccc(OCc3cc(C(=O)N4CCOCC4)ccc3-c3ccc(Cl)cc3)cc1F)n2C1CCCCC1
500 nM

Look up concentration at 2 h of CC(=O)N(c1ccc(-c2ccc(Cl)cc2)c(COc2ccc(-c3nc4cc(C(=O)O)ccc4n3C3CCCCC3)c(F)c2)c1)C(C)C and report it.
700 nM

Let me know recorded concentration at 2 h for CC(=O)Nc1ccc(-c2ccc(Cl)cc2)c(COc2ccc(-c3nc4cc(C(=O)O)ccc4n3C3CCCCC3)c(F)c2)c1 , thanks.
300 nM

Find the measured concentration at 2 h of CC(C)C(=O)N(C)c1ccc(-c2ccc(Cl)cc2)c(COc2ccc(-c3nc4cc(C(=O)O)ccc4n3C3CCCCC3)c(F)c2)c1 and report it.
1100 nM

Specify concentration at 2 h for CNC(=O)c1ccc(-c2ccc(Cl)cc2)c(COc2ccc(-c3nc4cc(C(=O)O)ccc4n3C3CCCCC3)c(F)c2)c1 and stop.
500 nM

###

Kindly supply the reported selectivity ratio values for the records listed here.
test: Therapeutic index, CC50 for viability of Huh5-2 cells/EC50 for inhibition of HCV subgenomic RNA replication; assay type: cell-based, Huh-5-2; conditions: human, read-out: Ratio CC50/EC50
Respond numerically, and do not add a unit to the figure.

Specify reported selectivity ratio for the compound shown: O=C(O)c1ccc2c(c1)nc(-c1ccc(OCc3cc(C(=O)NCc4ccccc4)ccc3-c3ccc(Cl)cc3)cc1)n2C1CCCCC1
20

Give a short answer stating reported selectivity ratio for CN(C)c1ccc(-c2ccc(Cl)cc2)c(COc2ccc(-c3nc4cc(C(=O)O)ccc4n3C3CCCCC3)cc2)c1 .
12

Please list selectivity ratio recorded for the compound O=C(O)c1ccc2c(c1)nc(-c1ccc(OCc3cc(N4CCCC4=O)ccc3-c3ccc(Cl)cc3)cc1F)n2C1CCCCC1
78

Let me know recorded selectivity ratio for Cc1ncc(COc2ccc(-c3nc4cc(C(=O)O)ccc4n3C3CCCCC3)cc2)c(-c2ccc(Cl)cc2)n1 , thanks.
16

In one line, give reported selectivity ratio of the entry O=C(O)c1ccc2c(c1)nc(-c1ccc(OCc3cc(Cl)ccc3-c3ccc(Cl)cc3)cc1)n2C1CCCCC1 .
13

Hello, please tell me recorded selectivity ratio for this one: CC(=O)N(C)c1ccc(-c2ccc(Cl)cc2)c(COc2ccc(-c3nc4cc(C(=O)O)ccc4n3C3CCCCC3)c(F)c2)c1
173

Output selectivity ratio of CCCNC(=O)c1ccc(-c2ccc(Cl)cc2)c(COc2ccc(-c3nc4cc(C(=O)O)ccc4n3C3CCCCC3)c(F)c2)c1
63

###

Hi there, I'd appreciate the recorded log10(concentration at 1 h) for every entry that follows.
experiment: Plasma concentration in rat at 30 mg/kg, po after 1 hr; type: ADME, organism-based; set-up: dose 30 mg/kg, route oral
Please note: log10 values; quantity concentration at 1 h; unit nM.

// fetch log10(concentration at 1 h) given entry O=C(O)c1ccc2c(c1)nc(-c1ccc(OCc3cc(C(=O)N4CCOCC4)ccc3-c3ccc(Cl)cc3)cc1F)n2C1CCCCC1
3.04

Return value of log10(concentration at 1 h) for input CC(=O)N(c1ccc(-c2ccc(Cl)cc2)c(COc2ccc(-c3nc4cc(C(=O)O)ccc4n3C3CCCCC3)c(F)c2)c1)C(C)C , no commentary.
3.04

Please give the documented log10(concentration at 1 h) of O=C(O)c1ccc2c(c1)nc(-c1ccc(OCc3cc(N4CCCC4=O)ccc3-c3ccc(Cl)cc3)cc1F)n2C1CCCCC1
3.60

Supply measured log10(concentration at 1 h) of O=C(O)c1ccc2c(c1)nc(-c1ccc(OCc3cc(C(=O)N4CCC(O)CC4)ccc3-c3ccc(Cl)cc3)cc1F)n2C1CCCCC1 in your reply.
2.00

Give log10(concentration at 1 h) for CCCNC(=O)c1ccc(-c2ccc(Cl)cc2)c(COc2ccc(-c3nc4cc(C(=O)O)ccc4n3C3CCCCC3)c(F)c2)c1
3.11

Please supply the value of reported log10(concentration at 1 h) for the item CC(C)C(=O)N(C)c1ccc(-c2ccc(Cl)cc2)c(COc2ccc(-c3nc4cc(C(=O)O)ccc4n3C3CCCCC3)c(F)c2)c1
3.28

Please report the measured log10(concentration at 1 h) for CC(C)NC(=O)c1ccc(-c2ccc(Cl)cc2)c(COc2ccc(-c3nc4cc(C(=O)O)ccc4n3C3CCCCC3)c(F)c2)c1
3.04

Given the molecule CC(=O)Nc1ccc(-c2ccc(Cl)cc2)c(COc2ccc(-c3nc4cc(C(=O)O)ccc4n3C3CCCCC3)c(F)c2)c1 , write its reported log10(concentration at 1 h).
3.00

Assign log10(concentration at 1 h) to the following record: CN(C)C(=O)c1ccc(-c2ccc(Cl)cc2)c(COc2ccc(-c3nc4cc(C(=O)O)ccc4n3C3CCCCC3)c(F)c2)c1
3.20

Please list log10(concentration at 1 h) recorded for the molecule CC(=O)N(C)c1ccc(-c2ccc(Cl)cc2)c(COc2ccc(-c3nc4cc(C(=O)O)ccc4n3C3CCCCC3)c(F)c2)c1
2.95

State its log10(concentration at 1 h) for this molecule: CNC(=O)c1ccc(-c2ccc(Cl)cc2)c(COc2ccc(-c3nc4cc(C(=O)O)ccc4n3C3CCCCC3)c(F)c2)c1
2.85

Give reported log10(concentration at 1 h) value for O=C(O)c1ccc2c(c1)nc(-c1ccc(OCc3cc(C(=O)N4CCCCC4)ccc3-c3ccc(Cl)cc3)cc1F)n2C1CCCCC1
3.34

State, in one line, measured log10(concentration at 1 h) of CCN(C(C)=O)c1ccc(-c2ccc(Cl)cc2)c(COc2ccc(-c3nc4cc(C(=O)O)ccc4n3C3CCCCC3)c(F)c2)c1
3.18

###

Task for the reader: assign each of the following compounds its reported IC50.
target: RNA-directed RNA polymerase (Hepacivirus hominis); assay: Inhibition of HCV 1b BK six His-tagged C-terminal truncated 544 amino acid NS5B RNA dependent RNA polymerase; set-up: species or system Hepatitis C virus subtype 1b
Form entry: value (nM) — number only.

Specify measured IC50 for O=C(O)c1ccc(-c2ccc(Cl)cc2COc2ccc(-c3nc4cc(C(=O)O)ccc4n3C3CCCCC3)cc2)cc1 .
58

Provide IC50 value for the following compound: CN(C)C(=O)Nc1ccc(-c2ccc(Cl)cc2)c(COc2ccc(-c3nc4cc(C(=O)O)ccc4n3C3CCCCC3)c(F)c2)c1
22

Please report IC50 for the following compound: CNC(=O)c1ccc(-c2ccc(Cl)cc2)c(COc2ccc(-c3nc4cc(C(=O)O)ccc4n3C3CCCCC3)cc2)c1
18

Hello, please tell me recorded IC50 for this one: Cc1ccc(-c2ccc(Cl)cc2COc2ccc(-c3nc4cc(C(=O)O)ccc4n3C3CCCCC3)cc2)cc1
98

Tell me measured IC50 for CN(C)S(=O)(=O)c1ccc(-c2ccc(Cl)cc2)c(COc2ccc(-c3nc4cc(C(=O)O)ccc4n3C3CCCCC3)cc2)c1 please.
23

Tell us which IC50 value is on record for COc1ccc(-c2ccc(Cl)cc2)c(COc2ccc(-c3nc4cc(C(=O)O)ccc4n3C3CCCCC3)cc2)c1
37

Specify measured IC50 for CCN(C(C)=O)c1ccc(-c2ccc(Cl)cc2)c(COc2ccc(-c3nc4cc(C(=O)O)ccc4n3C3CCCCC3)c(F)c2)c1 .
19

State its IC50: O=C(O)c1ccc2c(c1)nc(-c1ccc(OCc3ccccc3-c3ccc(Cl)cc3)cc1)n2C1CCCCC1
78

###

So I've got a bunch of compounds here, and I need their pEC50 values.
tested on: Hepatitis C virus; assay: Inhibition of HCV subgenomic RNA replication in Huh5-2 cells after 48 hrs by replicon assay; type: functional, organism-based, Hepacivirus hominis; conditions: Huh-5-2, 48 h
Convention used: pEC50 is expressed as -log10 of the molar concentration.

Please indicate pEC50 recorded for O=C(O)c1ccc2c(c1)nc(-c1ccc(OCc3ccccc3-c3ccc(Cl)cc3)cc1)n2C1CCCCC1
5.49

Provide measured pEC50 value, entry: Cc1ncc(COc2ccc(-c3nc4cc(C(=O)O)ccc4n3C3CCCCC3)cc2)c(-c2ccc(Cl)cc2)n1
5.82

Given CNC(=O)c1ccc(-c2ccc(Cl)cc2)c(COc2ccc(-c3nc4cc(C(=O)O)ccc4n3C3CCCCC3)cc2)c1 , respond with its pEC50.
6.28

Return pEC50 for the following compound: Cc1nc(COc2ccc(-c3nc4cc(C(=O)O)ccc4n3C3CCCCC3)cc2)c(-c2ccc(Cl)cc2)s1
5.20

Entry O=C(O)c1ccc2c(c1)nc(-c1ccc(OCc3cc(Cl)ccc3-c3cccnc3)cc1)n2C1CCCCC1 needs its pEC50 filled in; supply it.
5.59

Query pEC50 for CC(C)NC(=O)c1ccc(-c2ccc(Cl)cc2)c(COc2ccc(-c3nc4cc(C(=O)O)ccc4n3C3CCCCC3)c(F)c2)c1
6.70

Supply measured pEC50 of CN(C)C(=O)c1ccc(COc2ccc(-c3nc4cc(C(=O)O)ccc4n3C3CCCCC3)cc2)c(-c2ccc(Cl)cc2)c1 in your reply.
6.08
